Target: des-Arg9-bradykinin (UniProt P01042 P01042:381-388, des-Arg9)
Sequence (P01042 whole entry, looked up, change not shown, one chain of several): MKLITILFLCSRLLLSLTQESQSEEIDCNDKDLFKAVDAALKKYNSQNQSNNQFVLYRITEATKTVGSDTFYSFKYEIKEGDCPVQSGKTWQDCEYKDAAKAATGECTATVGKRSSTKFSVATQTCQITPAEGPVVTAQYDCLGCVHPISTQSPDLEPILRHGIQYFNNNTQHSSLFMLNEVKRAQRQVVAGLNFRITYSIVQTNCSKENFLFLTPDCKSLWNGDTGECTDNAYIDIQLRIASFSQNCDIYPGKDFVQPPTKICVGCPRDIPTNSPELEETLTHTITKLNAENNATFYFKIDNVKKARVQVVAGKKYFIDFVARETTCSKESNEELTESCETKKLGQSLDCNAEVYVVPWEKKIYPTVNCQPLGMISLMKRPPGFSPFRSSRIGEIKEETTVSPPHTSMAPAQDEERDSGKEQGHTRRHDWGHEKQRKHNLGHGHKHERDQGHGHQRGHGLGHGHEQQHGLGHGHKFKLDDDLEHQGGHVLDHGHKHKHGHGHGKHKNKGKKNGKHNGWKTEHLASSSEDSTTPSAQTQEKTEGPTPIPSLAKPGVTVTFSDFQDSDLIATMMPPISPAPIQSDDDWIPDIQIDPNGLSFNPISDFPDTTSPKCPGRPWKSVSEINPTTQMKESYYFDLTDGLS
Assay: competition; inhibition of reaction of 12.1 with BrBK; +/-0.5
Conditions: tags: peptide analog
readout: Ki (µM)
Give a bare numeral; the unit µM is implied.

-- ask State the recorded Ki for this entry: 12.1 (ssRNA, 5'-GMPS) RNA: GGGAGCUCAGAAUAAACGCUCAAAGCUGUUGGCAGCGCUGGUGAAGGGAUAGGCUUCGACAUGAGGCCCGGAUCCGGC
-- reply 2600
